# Tested on: LNCaP tumor-transplanted mouse
# experiment: Internal radioactivity distribution using LNCaP tumor-transplanted mouse
# Format: in vivo
# experimental parameters: 24 h after administration
result type: Stomach (% ID)
Write the answer as a number in % ID, unit excluded.

// worked examples, Stomach (% ID) included
O=C([O-])CN1CCN(C(CCC(=O)NCCC(=O)N2Cc3ccccc3-c3c(nnn3CCOCCOCCOCCOCCC(=O)NCCCC[C@H](NC(=O)N[C@@H](CCC(=O)O)C(=O)O)C(=O)O)-c3ccccc32)C(=O)[O-])CCN(CC(=O)[O-])CCN(C(CCC(=O)N[C@@H](CCCCNC(=O)CCCc2ccc(I)cc2)C(=O)O)C(=O)[O-])CC1.[111In+3] (stereo partly shown) [[^111In]In-PtDA]: 0.46
O=C([O-])CN1CCN(C(CCC(=O)NCCCC[C@H](NC(=O)N[C@@H](CCC(=O)O)C(=O)O)C(=O)O)C(=O)[O-])CCN(CC(=O)[O-])CCN(C(CCC(=O)N[C@@H](CCCCNC(=O)CCCc2ccc(I)cc2)C(=O)O)C(=O)[O-])CC1.[111In+3] (stereo partly shown) [[^111In]In-PSMA-DA1]: 0.40
O=C([O-])CN(CCN(CCc1ccc(NC(=O)CCCCCNC(=O)CCC(=O)NCCCC[C@H](NC(=O)N[C@@H](CCC(=O)O)C(=O)O)C(=O)O)cc1)CCN(CC(=O)[O-])Cc1cccc(C(=O)[O-])n1)Cc1cccc(C(=O)[O-])n1.[111In+3] [[^111In]In-Neunpa-1, reference compound]: 0.05

Here is another molecule to look at.
Please report the measured Stomach (% ID) for O=C([O-])CN1CCN(C(CCC(=O)NCCCC[C@H](NC(=O)N[C@@H](CCC(=O)O)C(=O)O)C(=O)O)C(=O)[O-])CCN(CC(=O)[O-])CCN(C(CCC(=O)Nc2ccccc2)C(=O)[O-])CC1.[111In+3] (stereo partly shown) [[^111In]In-PSMA-DB, reference compound] tested on LNCaP tumor-transplanted mouse.
0.16
